Test system: MDA-MB-231
Assay: MTT cytotoxic/antiproliferative activity, 72 h
Format: cell-based, human
Conditions: MDA-MB-231, MTT, 72 h
Provide the reported pIC50 of each item.
Answers are plain numbers, as −log10 of the molar value.

Dear colleague, could you please provide pIC50 for the compounds listed below?
1. CC(Oc1cc(-c2cnn(C3CCN(C(=O)[O][Pt]([Cl])([Cl])[O]C(=O)CCCc4ccccc4)CC3)c2)cnc1N)c1c(Cl)ccc(F)c1Cl.N.N (stereo not drawn) [compound 3, ctc-[Pt(NH3)2(crizotinib)(PhB)Cl2]]
2. C[C@@H](Oc1cc(-c2cnn(C3CCN(C(=O)[O][Pt]4([O]C(=O)CCCc5ccccc5)[O]C(=O)C(=O)[O]4)CC3)c2)cnc1N)c1c(Cl)ccc(F)c1Cl.N[C@@H]1CCCC[C@H]1N [compound 4, ctc-[Pt(DACH)(crizotinib)(PhB)(Ox)]]
3. O=C1[O][Pt]2([NH][C@@H]3CCCC[C@H]3[NH]2)[O]C1=O [OxPt, oxaliplatin, reference compound]

*A*
6.30
5.82
5.21

---

Provide the reported pIC50 of each item.
Test system: MMC2
Test: MTT cytotoxicity in NER-deficient cells, 72 h
Type: cell-based, Chinese hamster
Details: MMC2 (NER deficient), MTT, 72 h
Answers are plain numbers, as −log10 of the molar value.

Sample C[C@@H](Oc1cc(-c2cnn(C3CCN(C(=O)[O][Pt]4([O]C(=O)CCCc5ccccc5)[O]C(=O)C(=O)[O]4)CC3)c2)cnc1N)c1c(Cl)ccc(F)c1Cl.N[C@@H]1CCCC[C@H]1N [compound 4, ctc-[Pt(DACH)(crizotinib)(PhB)(Ox)]] ; pIC50 observed: 5.89

Short answer for N.N.[Cl][Pt][Cl] [cisPt, cisplatin, reference compound] : pIC50 was 5.59

pIC50 reported for this compound CC(Oc1cc(-c2cnn(C3CCN(C(=O)[O][Pt]([OH])([Cl])[Cl])CC3)c2)cnc1N)c1c(Cl)ccc(F)c1Cl.N.N (stereo not shown) [compound 2, ctc-[Pt(NH3)2(crizotinib)(OH)Cl2]] : 6.11

Kindly note the recorded pIC50 for CC(Oc1cc(-c2cnn(C3CCN(C(=O)[O][Pt]([Cl])([Cl])[O]C(=O)CCCc4ccccc4)CC3)c2)cnc1N)c1c(Cl)ccc(F)c1Cl.N.N (stereo not shown) [compound 3, ctc-[Pt(NH3)2(crizotinib)(PhB)Cl2]] , which is 6.64

Notebook: Cc1cc(Nc2ncc(Cl)c(Nc3ccccc3S(=O)(=O)C(C)C)n2)c(OC(C)C)cc1C1CCN(C(=O)[O][Pt]([Cl])([Cl])[O]C(=O)CCCc2ccccc2)CC1.N.N [compound 7, ctc-[Pt(NH3)2(ceritinib)(PhB)Cl2]] , pIC50 read as 7.00

Please give pIC50, item by item, for the list that follows.
1. Cc1cc(Nc2ncc(Cl)c(Nc3ccccc3S(=O)(=O)C(C)C)n2)c(OC(C)C)cc1C1CCN(C(=O)[O][Pt]2([O]C(=O)CCCc3ccccc3)[O]C(=O)C(=O)[O]2)CC1.N[C@@H]1CCCC[C@H]1N [compound 8, ctc-[Pt(DACH)(ceritinib)(PhB)(Ox)]]
2. Cc1cc(Nc2ncc(Cl)c(Nc3ccccc3S(=O)(=O)C(C)C)n2)c(OC(C)C)cc1C1CCN(C(=O)[O][Pt]([OH])([Cl])[Cl])CC1.N.N [compound 6, ctc-[Pt(NH3)2(ceritinib)(OH)Cl2]]

*A*
[6.05, 6.54]

---

Exercise: state measured stability half-life (t 1/2) for each of the compounds provided.
Test: Stability in RPMI cell culture medium with serum (HPLC)
Conditions: serum

Solved cases below.
stability half-life (t 1/2) measured on Cc1cc(Nc2ncc(Cl)c(Nc3ccccc3S(=O)(=O)C(C)C)n2)c(OC(C)C)cc1C1CCN(C(=O)[O][Pt]([Cl])([Cl])[O]C(=O)CCCc2ccccc2)CC1.N.N [compound 7, ctc-[Pt(NH3)2(ceritinib)(PhB)Cl2]] = 37 h

Lookup result for C[C@@H](Oc1cc(-c2cnn(C3CCN(C(=O)[O][Pt]4([O]C(=O)CCCc5ccccc5)[O]C(=O)C(=O)[O]4)CC3)c2)cnc1N)c1c(Cl)ccc(F)c1Cl.N[C@@H]1CCCC[C@H]1N [compound 4, ctc-[Pt(DACH)(crizotinib)(PhB)(Ox)]] ; measured stability half-life (t 1/2): >75 h

// field: stability half-life (t 1/2); key: CC(Oc1cc(-c2cnn(C3CCN(C(=O)[O][Pt]([Cl])([Cl])[O]C(=O)CCCc4ccccc4)CC3)c2)cnc1N)c1c(Cl)ccc(F)c1Cl.N.N (stereo not shown) [compound 3, ctc-[Pt(NH3)2(crizotinib)(PhB)Cl2]] ; value = 42 h

Then there is this compound:
For CC(Oc1cc(-c2cnn(C3CCN(C(=O)[O][Pt]([OH])([Cl])[Cl])CC3)c2)cnc1N)c1c(Cl)ccc(F)c1Cl.N.N (stereo not shown) [compound 2, ctc-[Pt(NH3)2(crizotinib)(OH)Cl2]] the compound record lists stability half-life (t 1/2) as 75 h

---

Field: Index F. Provide a value for each of the molecules that follow.
System: MMC2
Experiment: MTT cytotoxicity in NER-deficient cells, 72 h
Type: cell-based, Chinese hamster
Conditions: IC50(CHOK1)/IC50(MMC2)
Numbers only.

# annotated cases, reported Index F shown
Short answer for CC(Oc1cc(-c2cnn(C3CCN(C(=O)[O][Pt]([OH])([Cl])[Cl])CC3)c2)cnc1N)c1c(Cl)ccc(F)c1Cl.N.N (stereo not shown) [compound 2, ctc-[Pt(NH3)2(crizotinib)(OH)Cl2]] : Index F was 1.95

// recorded Index F for Cc1cc(Nc2ncc(Cl)c(Nc3ccccc3S(=O)(=O)C(C)C)n2)c(OC(C)C)cc1C1CCN(C(=O)[O][Pt]2([O]C(=O)CCCc3ccccc3)[O]C(=O)C(=O)[O]2)CC1.N[C@@H]1CCCC[C@H]1N [compound 8, ctc-[Pt(DACH)(ceritinib)(PhB)(Ox)]] : 1.22

Looking up C[C@@H](Oc1cc(-c2cnn(C3CCN(C(=O)[O][Pt]4([O]C(=O)CCCc5ccccc5)[O]C(=O)C(=O)[O]4)CC3)c2)cnc1N)c1c(Cl)ccc(F)c1Cl.N[C@@H]1CCCC[C@H]1N [compound 4, ctc-[Pt(DACH)(crizotinib)(PhB)(Ox)]] , I see its Index F listed as 1.08

// moving on: another record for Index F
Field Index F (entry Cc1cc(Nc2ncc(Cl)c(Nc3ccccc3S(=O)(=O)C(C)C)n2)c(OC(C)C)cc1C1CCNCC1 ) reads 1.08

---

Test system: hepatocyte-like cells (HLC)
Test: Cytotoxicity in hepatocyte-like cells, sulphorhodamine B assay
Assay type: cell-based
Details: hepatocyte-like cells from human pluripotent cells
experimental-readout: IC50 (µM)
Answers are plain numbers, in µM.

Provide IC50 values for the following items, in order.
1. CC(Oc1cc(-c2cnn(C3CCN(C(=O)[O][Pt]([Cl])([Cl])[O]C(=O)CCCc4ccccc4)CC3)c2)cnc1N)c1c(Cl)ccc(F)c1Cl.N.N (centres unmarked) [compound 3, ctc-[Pt(NH3)2(crizotinib)(PhB)Cl2]]
2. Cc1cc(Nc2ncc(Cl)c(Nc3ccccc3S(=O)(=O)C(C)C)n2)c(OC(C)C)cc1C1CCN(C(=O)[O][Pt]([Cl])([Cl])[O]C(=O)CCCc2ccccc2)CC1.N.N [compound 7, ctc-[Pt(NH3)2(ceritinib)(PhB)Cl2]]

*A*
1: 5; 2: 4

---

Test system: RD
Test: MTT cytotoxic/antiproliferative activity, 72 h
Format: cell-based, human
Details: Homo sapiens, MTT, 72 h
experimental-readout: pIC50
Answers are plain numbers, as −log10 of the molar value.

Query C[C@@H](Oc1cc(-c2cnn(C3CCNCC3)c2)cnc1N)c1c(Cl)ccc(F)c1Cl [compound 1, crizotinib] yields pIC50 of 5.85

Could you now consider this next compound?
Short answer for Cc1cc(Nc2ncc(Cl)c(Nc3ccccc3S(=O)(=O)C(C)C)n2)c(OC(C)C)cc1C1CCNCC1 [compound 5, ceritinib] : pIC50 was 5.82

---

Test system: IMR-90
Assay: MTT cytotoxicity in noncancerous cells, 72 h
Format: cell-based, human
Conditions: IMR-90, MTT
Method: Growth inhibition activity in cancer cell lines was compared with the activity to inhibit the proliferation of normal (noncancerous) cells, namely MRC-5, IMR-90, hTERT-HPNE, and MCF10A cells. Selectivity indexes (SI) were calculated as (IC50 in noncancerous cells)/(average IC50 in cancer cells). […] We further assessed the toxicity of several of the compounds in hepatocyte-like cells (HLC) generated from human pluripotent cells. Cytotoxicity in hepatocyte-like cells (HLC). […]
Rule for this label: Yes means IC50 is less than 5 µM; No means IC50 is at least 5 µM.

*Q* hey, is IC50 for N.N.[Cl][Pt][Cl] [cisPt, cisplatin, reference compound] lower than 5 µM or not?
*A* No

Further cases:
*Q* Is 5 µM strictly greater than the molecule's reported IC50? molecule: CC(Oc1cc(-c2cnn(C3CCN(C(=O)[O][Pt]([OH])([Cl])[Cl])CC3)c2)cnc1N)c1c(Cl)ccc(F)c1Cl.N.N (stereo not shown) [compound 2, ctc-[Pt(NH3)2(crizotinib)(OH)Cl2]]
*A* No

*Q* API: query returns whether the molecule falls strictly under 5 µM in IC50. Query: Cc1cc(Nc2ncc(Cl)c(Nc3ccccc3S(=O)(=O)C(C)C)n2)c(OC(C)C)cc1C1CCN(C(=O)[O][Pt]([Cl])([Cl])[O]C(=O)CCCc2ccccc2)CC1.N.N [compound 7, ctc-[Pt(NH3)2(ceritinib)(PhB)Cl2]]
*A* Yes

*Q* Is the reported IC50 for CC(Oc1cc(-c2cnn(C3CCN(C(=O)[O][Pt]([Cl])([Cl])[O]C(=O)CCCc4ccccc4)CC3)c2)cnc1N)c1c(Cl)ccc(F)c1Cl.N.N (stereo not shown) [compound 3, ctc-[Pt(NH3)2(crizotinib)(PhB)Cl2]] strictly below 5 µM?
*A* Yes

*Q* Please state whether IC50 is below 5 µM for Cc1cc(Nc2ncc(Cl)c(Nc3ccccc3S(=O)(=O)C(C)C)n2)c(OC(C)C)cc1C1CCN(C(=O)[O][Pt]([OH])([Cl])[Cl])CC1.N.N [compound 6, ctc-[Pt(NH3)2(ceritinib)(OH)Cl2]]
*A* Yes

*Q* Hi there! Is IC50 for C[C@@H](Oc1cc(-c2cnn(C3CCN(C(=O)[O][Pt]4([O]C(=O)CCCc5ccccc5)[O]C(=O)C(=O)[O]4)CC3)c2)cnc1N)c1c(Cl)ccc(F)c1Cl.N[C@@H]1CCCC[C@H]1N [compound 4, ctc-[Pt(DACH)(crizotinib)(PhB)(Ox)]] below 5 µM, do you know?
*A* Yes
